- Species on record: Rattus norvegicus
- assayInfo: Displacement of [35S]TBPS from GABAA receptor in rat cerebellum at 10 uM to 1 nM after 60 mins
- Format: tissue-based
parameter: Imax (%)

{"columns": ["molecule", "reported"],
 "data": [
  ["CC(=O)[C@H]1CC[C@H]2[C@@H]3CC=C4CC[C@@H](O)CC[C@]4(C)[C@H]3CC[C@]12C", 50],
  ["CC(=O)[C@H]1CC[C@H]2[C@@H]3CC=C4CC[C@H](O)CC[C@]4(C)[C@H]3CC[C@]12C", 75.6],
  ["CC(=O)[C@H]1CC[C@H]2[C@@H]3CC=C4C[C@H](O)CCC[C@]4(C)[C@H]3CC[C@]12C", 50.7],
  ["CC(=O)[C@H]1CC[C@H]2[C@@H]3CC[C@H]4CC[C@@H](O)CC[C@]4(C)[C@H]3CC[C@]12C", 46.2],
  ["CC(=O)[C@H]1CC[C@H]2[C@@H]3CC[C@H]4C[C@H](O)CC[C@]4(C)[C@H]3CC[C@]12C [BREXANOLONE]", 79.6]
]}

----------
The entries below are paired with their reported log10(IC50).
- assayInfo: Displacement of [35S]TBPS from GABAA receptor in rat cerebellum after 60 mins
- Type: tissue-based
parameter: log10(IC50) (log10 of the value in nM)

{"columns": ["molecule", "parameter", "reported"],
 "data": [
  ["CC(=O)[C@H]1CC[C@H]2[C@@H]3CC=C4CC[C@H](O)CC[C@]4(C)[C@H]3CC[C@]12C", "log10(IC50)", 3.08],
  ["CC(=O)[C@H]1CC[C@H]2[C@@H]3CC[C@H]4CC[C@@H](O)CC[C@]4(C)[C@H]3CC[C@]12C", "log10(IC50)", 3.00],
  ["CC(=O)[C@H]1CC[C@H]2[C@@H]3CC[C@H]4C[C@H](O)CC[C@]4(C)[C@H]3CC[C@]12C [BREXANOLONE]", "log10(IC50)", 1.90],
  ["CC(=O)[C@H]1CC[C@H]2[C@@H]3CC=C4CC[C@@H](O)CC[C@]4(C)[C@H]3CC[C@]12C", "log10(IC50)", 2.00],
  ["CC(=O)[C@H]1CC[C@H]2[C@@H]3CC=C4C[C@H](O)CCC[C@]4(C)[C@H]3CC[C@]12C", "log10(IC50)", 2.90]
]}

Origin of measurements: ChEMBL document CHEMBL1177881
